Just for reference, PubChem BioAssay (NCI) is where these values come from.

Kindly state TGI for each of the entries shown.
System: U251 CNS
Test: NCI tumour cell line growth inhibition, 48 h

Query :: Give a short answer stating reported TGI for `C1C[OH+]CC[OH+]CC[OH+]CC[OH+]CC[OH+]CC[OH+]1.[Cl-].[Nb+5]` .
Result :: > 100 µM

Query :: Give a short answer stating reported TGI for `C[N+](C)([O-])CCCNc1ccnc2cccc([N+](=O)[O-])c12` .
Result :: > 100 µM

Query :: Give a short answer stating reported TGI for `CCCCCCNC(=O)Oc1ccc(/C(=C(\C)c2ccccc2)c2ccc(OCCN(CC)CC)cc2)cc1` .
Result :: 8.15 µM

Query :: Give a short answer stating reported TGI for `CC(C)c1cccc(C(C)C)c1OS(=O)(=O)NC(=O)OC(C(F)(F)F)C(F)(F)F` .
Result :: > 100 µM

Query :: Give a short answer stating reported TGI for `CCCCOc1ccc(/C=N/Nc2cc(C)nc3ccc(Cl)cc23)cc1` .
Result :: 3.19 µM

Query :: Give a short answer stating reported TGI for `C#CCN(Cc1nc2cc(C(F)(F)F)ccc2nc1-c1ccccc1)c1ccc(F)c(F)c1` .
Result :: > 100 µM

Query :: Give a short answer stating reported TGI for `CC[C@H](C)C1=C(OC(C)=O)[N@+]2([O-])Oc3ccc(-c4c(OC(C)=O)c(OC(C)=O)c(-c5ccc(OC(C)=O)cc5)c(OC(C)=O)c4OC(C)=O)cc3O[C@]2([C@@H](C)CC)C(=O)N1OC(C)=O` .
Result :: > 50 µM

Query :: Give a short answer stating reported TGI for `CCOC(=O)c1ccccc1-c1c2ccc(=[N+](C)C)cc-2oc2cc(N(C)C)ccc12` .
Result :: > 35.7 µM

Query :: Give a short answer stating reported TGI for `Cc1cc(S(=O)(=O)Nc2nc3cc(Cl)ccc3o2)c(SCc2ccccc2)cc1Cl` .
Result :: 37.1 µM

Query :: Give a short answer stating reported TGI for `O=C(Nc1cccc(C(F)(F)F)c1)c1cc(Br)cc(Br)c1O` .
Result :: > 10 µM

---

Tested on: RXF 393 renal
Test: NCI tumour cell line growth inhibition, 48 h
Everything with TGI lower than 40 µM is 0; everything else, including exactly 40 µM, is 1.

Query :: Confirm if TGI reported for the compound OC(CN1CCCCC1)c1ccc(/C=C/c2ccc(Cl)cc2)cc1 (centres undefined) is 40 µM or above.
Result :: 1

Query :: Confirm if TGI reported for the compound `c1ccc2nc(OCCN3CC3)ccc2c1` is 40 µM or above.
Result :: 0

Query :: Confirm if TGI reported for the compound `Oc1ccc(Cl)cc1-c1cc(-c2ccc(F)cc2)n[nH]1` is 40 µM or above.
Result :: 0

Query :: Confirm if TGI reported for the compound `Nc1c(-c2nc3ccccc3[nH]2)sc(=S)n1-c1ccc(Cl)cc1` is 40 µM or above.
Result :: 1

Query :: Confirm if TGI reported for the compound `CN1CCN(CCOc2ccc(-c3cnc4c(-c5ccc(F)cc5)cnn4c3)cc2)CC1` is 40 µM or above.
Result :: 0

Query :: Confirm if TGI reported for the compound `Brc1cccc[n+]1-c1ccc2cc(-[n+]3ccccc3Br)ccc2c1` is 40 µM or above.
Result :: 1

Query :: Confirm if TGI reported for the compound NC(N)=NCC(N)C(=O)O (centres undefined) is 40 µM or above.
Result :: 1

Query :: Confirm if TGI reported for the compound C[N+](C)(C)CC1CCCC/C1=N\O (centres undefined) is 40 µM or above.
Result :: 1

Query :: Confirm if TGI reported for the compound COP(C)(=O)C(Cc1c[nH]c2ccccc12)NC(=O)OCc1ccccc1 (centres undefined) is 40 µM or above.
Result :: 1

Query :: Confirm if TGI reported for the compound `O=C(Oc1cccc(Cl)c1)c1cc2cc(CCl)ccc2oc1=O` is 40 µM or above.
Result :: 1

Query :: Confirm if TGI reported for the compound `COc1ccc2[nH]c(O)c(/C=c3/cc4c(c(-c5ccc(F)cc5)n3)=Nc3ccccc3-4)c2c1` is 40 µM or above.
Result :: 0

Query :: Confirm if TGI reported for the compound NC(=O)N/N=C(/c1nc2ccc([N+](=O)[O-])cc2[nH]c1=O)C(O)c1ccco1 (centres undefined) is 40 µM or above.
Result :: 1

Query :: Confirm if TGI reported for the compound `Cc1cc(O)c(C(c2ccncc2)c2c(O)cc(C)[nH]c2=O)c(=O)[nH]1` is 40 µM or above.
Result :: 1

---

Test system: PC-3 prostate
Assay: NCI tumour cell line growth inhibition, 48 h; in the data active = GI50 below about 0.43 µM; inactive = the rest
Assign a class; possible classes are 1 (yes) (active), 0 (no) (inactive)

Query :: Status in this test for `CCCCOc1ccc(/C=N/Nc2cc(C)nc3ccc(Cl)cc23)cc1` ?
Result :: 0 (no)

Query :: Status in this test for `COc1ccc2[nH]c(O)c(/C=c3/cc4c(c(-c5ccc(F)cc5)n3)=Nc3ccccc3-4)c2c1` ?
Result :: 0 (no)

Query :: Status in this test for COc1cc([C@@H]2c3cc4c(cc3C(OC3O[C@@H]5COC(C)O[C@H]5[C@H](O)[C@H]3O)C3COC(=O)[C@@H]32)OCO4)cc(OC)c1O (some centres undefined) ?
Result :: 0 (no)

Query :: Status in this test for `Cc1ccc2c(c1)C(=O)c1c-2n(CCCN=[N+]=[N-])c(=O)c2cc([N+](=O)[O-])ccc12` ?
Result :: 0 (no)

Query :: Status in this test for `Oc1ccc(Cl)cc1-c1cc(-c2ccc(F)cc2)n[nH]1` ?
Result :: 0 (no)

Query :: Status in this test for `CN(C)CCNc1nc2ccccc2c2c(=O)c3ccccc3sc12` ?
Result :: 0 (no)

Query :: Status in this test for `Cc1cc(S(=O)(=O)Nc2nc3cc(Cl)ccc3o2)c(SCc2ccccc2)cc1Cl` ?
Result :: 0 (no)

Query :: Status in this test for Nc1c(C(=O)Nc2cccc(Br)c2)sc2nc3c(cc12)C(O)CCC3 (centres undefined) ?
Result :: 1 (yes)

Query :: Status in this test for `CC(=O)N1CCN(CCOc2ccc(C3CCN(C4=Nn5c(nnc5C(F)(F)F)CC4)CC3)cc2)CC1` ?
Result :: 0 (no)

---

System: MALME-3M melanoma
Assay: NCI tumour cell line growth inhibition, 48 h
Kindly state TGI for each of the entries shown.

Query :: Give a short answer stating reported TGI for `COc1ccc2nc3cccc(C(=O)NCCN(C)C)c3nc2c1` .
Result :: 2.69 µM

Query :: Give a short answer stating reported TGI for `COc1ccccc1NCC(=O)Nn1c(C)nc2ccc(S(=O)(=O)Nc3ccccc3OC)cc2c1=O` .
Result :: > 100 µM

Query :: Give a short answer stating reported TGI for CC1CN=C(c2ccc(COc3ccc(C4=NCC(C)N4)cc3)cc2)N1 (stereo unspecified) .
Result :: > 100 µM

Query :: Give a short answer stating reported TGI for `CSC1=C(C(=O)Nc2ccccc2)C(N)=NC1=O` .
Result :: > 100 µM

Query :: Give a short answer stating reported TGI for `O=S(=O)(O)ONC1=NCCN1` .
Result :: > 100 µM

Query :: Give a short answer stating reported TGI for `CN(CCO)/N=N/c1[nH]ncc1C(N)=O` .
Result :: > 100 µM

Query :: Give a short answer stating reported TGI for CC(=O)C1(O)Cc2c(O)c3c(c(O)c2C(OC2CC(N)C(O)C(C)O2)C1)C(=O)c1ccccc1C3=O (stereo unspecified) .
Result :: 0.0666 µM

Query :: Give a short answer stating reported TGI for `Cc1nc2c(=O)[nH]c3ccc(Cl)cc3c2o1` .
Result :: > 100 µM

Query :: Give a short answer stating reported TGI for COP(C)(=O)C(Cc1c[nH]c2ccccc12)NC(=O)OCc1ccccc1 (stereo unspecified) .
Result :: > 100 µM

Query :: Give a short answer stating reported TGI for `COc1ccc(/C=N/Nc2nc(C)c3c(n2)Nc2ccccc2NC3=O)cc1` .
Result :: > 100 µM

Query :: Give a short answer stating reported TGI for CC1(C)CC[C@]2(C(=O)O)[C@H](O)C[C@]3(C)C(=CC[C@@H]4[C@@]5(C)CC[C@H](OC6OC(C(=O)O)C(O)C(O)C6O)C(C)(C)[C@@H]5CC[C@]43C)[C@@H]2C1 (stereo partly specified) .
Result :: > 100 µM

Query :: Give a short answer stating reported TGI for `C#CCN(C)C(=O)N(CC#C)N=O` .
Result :: > 100 µM

Query :: Give a short answer stating reported TGI for `CCCCOc1ccc(/C=N/Nc2cc(C)nc3ccc(Cl)cc23)cc1` .
Result :: 3.38 µM

Query :: Give a short answer stating reported TGI for OC(CN1CCCCC1)c1ccc(/C=C/c2ccc(Cl)cc2)cc1 (stereo unspecified) .
Result :: > 100 µM

Query :: Give a short answer stating reported TGI for C#CCCCC(=O)N(C(=O)CS(=O)CC)c1ccccc1 (stereo unspecified) .
Result :: > 100 µM

Query :: Give a short answer stating reported TGI for `CC(=O)CC(=O)/C=C/c1cccs1` .
Result :: > 100 µM

Query :: Give a short answer stating reported TGI for `CN(C)c1ccc(/C=c2/c3cc([N+](=O)[O-])ccc3n3c2cc(-c2ccccc2)[n+]3C)cc1` .
Result :: 1.18 µM

Query :: Give a short answer stating reported TGI for `O=[N+]([O-])c1ccc2ncccc2c1CCc1c([N+](=O)[O-])ccc2ncccc12` .
Result :: > 100 µM

Query :: Give a short answer stating reported TGI for `Cc1cccc(NC2=NCCO2)c1Cl` .
Result :: > 100 µM

Query :: Give a short answer stating reported TGI for CN(C)CC1CCCC/C1=N/OC(=O)c1ccc(Cl)c(Cl)c1 (stereo unspecified) .
Result :: > 100 µM

Query :: Give a short answer stating reported TGI for COC(=O)C1CC(C(=O)OC)c2nc3cc(C)c(C)cc3nc21 (stereo unspecified) .
Result :: > 100 µM

Query :: Give a short answer stating reported TGI for `CCCn1c(N)c(C(=O)CNc2ccc(I)cc2)c(=O)[nH]c1=O` .
Result :: > 100 µM

Query :: Give a short answer stating reported TGI for CCCC1(N)CC(OC)OC(C)C1O (stereo unspecified) .
Result :: > 100 µM

Query :: Give a short answer stating reported TGI for `O=[N+]([O-])c1cc(Cl)ccc1S(=O)(=O)N1CCCc2cc(Cl)ccc21` .
Result :: > 100 µM

Query :: Give a short answer stating reported TGI for NC(=O)N/N=C(/c1nc2ccc([N+](=O)[O-])cc2[nH]c1=O)C(O)c1ccco1 (stereo unspecified) .
Result :: > 100 µM

Query :: Give a short answer stating reported TGI for CC(C)(C)OC(=O)N1N=NC2C3OC(CC3=O)C21 (stereo unspecified) .
Result :: > 100 µM

Query :: Give a short answer stating reported TGI for `O=C(NCCCCOCC#Cc1ccccc1C#CCS(=O)(=O)c1ccccc1)c1cc2ccccc2[nH]1` .
Result :: 24.1 µM

Query :: Give a short answer stating reported TGI for `CCOC(=O)NC(=O)c1c[nH]c(=O)[nH]c1=O` .
Result :: > 100 µM

Query :: Give a short answer stating reported TGI for `COC[C@@H](Cc1ccc(OC)c(OC)c1)[C@@H](COC)Cc1ccc(OC)c(OC)c1` .
Result :: > 100 µM

Query :: Give a short answer stating reported TGI for `O=c1c2c3c(sc2n2c(-c4ccc(Br)cc4)nnc2n1Cc1ccccc1)CCCC3` .
Result :: 19.5 µM

Query :: Give a short answer stating reported TGI for CC1(C)c2ccccc2C(O)C12CCC(=O)CC2 (stereo unspecified) .
Result :: > 100 µM

Query :: Give a short answer stating reported TGI for `N#Cc1cccc(OCc2ccccc2COc2cccc(C#N)c2)c1` .
Result :: 38 µM

Query :: Give a short answer stating reported TGI for `CN(C)CCNc1nc(-c2cccs2)cc(-c2cccs2)n1` .
Result :: 30.9 µM

Query :: Give a short answer stating reported TGI for `COc1ccc2[nH]c(O)c(/C=c3/cc4c(c(-c5ccc(F)cc5)n3)=Nc3ccccc3-4)c2c1` .
Result :: 4.6 µM

Query :: Give a short answer stating reported TGI for `COC(=O)[C@]12CC[C@@H](C)[C@H](C)[C@@H]1C1=CC[C@@H]3[C@@]4(C)CC(=O)[C@H](OC(=O)c5ccco5)[C@@]5(C)COC(=C45)C[C@@]3(C)[C@]1(C)CC2` .
Result :: > 100 µM

Query :: Give a short answer stating reported TGI for `Nc1nc(N)c(-c2ccccc2)c(CCC(=O)Nc2ccc(Cl)cc2)n1` .
Result :: > 100 µM

Query :: Give a short answer stating reported TGI for O=C1OC(=O)C2C1C(c1ccccc1[N+](=O)[O-])C=C(c1ccco1)N2c1ccncc1 (stereo unspecified) .
Result :: 40.6 µM

Query :: Give a short answer stating reported TGI for `CCOC(=O)/N=c1/nc(N(C)C)ss1` .
Result :: > 100 µM

Query :: Give a short answer stating reported TGI for `C=CCCC(=O)N1C=CC(=O)[C@H](O)[C@@H]1/C=C/c1ccccc1` .
Result :: > 32.5 µM

Query :: Give a short answer stating reported TGI for CO[C@H](C(=O)O)[C@@H]1Cc2cc3cc(OC4CC(OC5CC(O)C(O)C(C)O5)C(O)C(C)O4)c(C)c(O)c3c(O)c2C(=O)[C@H]1OC1CC(OC2CC(OC3CC(C)(O)C(O)C(C)O3)C(O)C(C)O2)C(O)C(C)O1 (stereo partly specified) .
Result :: 1.4 µM

Query :: Give a short answer stating reported TGI for `NS(=O)(=O)c1ccc(NC(=O)Nc2ccccc2F)cc1` .
Result :: > 100 µM
